- experimental target: mouse TGR5 receptor (Mus musculus, UniProt Q80SS6)
- Construct: host or cells: HEK293-EBNA (293 c18, ATCC CRL10852)
- Sequence (Q80SS6 whole entry): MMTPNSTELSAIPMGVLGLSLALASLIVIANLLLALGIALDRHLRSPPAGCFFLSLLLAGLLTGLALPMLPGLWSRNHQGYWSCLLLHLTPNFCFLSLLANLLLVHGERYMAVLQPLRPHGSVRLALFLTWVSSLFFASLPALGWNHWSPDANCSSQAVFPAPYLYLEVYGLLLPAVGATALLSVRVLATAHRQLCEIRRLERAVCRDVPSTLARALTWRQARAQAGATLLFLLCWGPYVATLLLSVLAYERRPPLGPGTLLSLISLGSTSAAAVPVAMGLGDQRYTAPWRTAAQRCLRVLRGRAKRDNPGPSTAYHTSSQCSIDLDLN
- assay text: Mouse TGR5 HTRF cAMP production assay (HEK293-EBNA cells, Cisbio cAMP HiRange kit)
- Format: cell-based
- condition set: HEK293-EBNA cells overexpressing mouse TGR5, HTRF cAMP assay
List of EC50 values.

Some entries whose results are on file:
N#Cc1ccc(CCNC(=O)[C@@H]2CCCN2c2cc(-c3cc4ccccc4s3)nc(C(F)(F)F)n2)cc1 : 0.1 to 0.999 µM
N#Cc1ccc(CCNC(=O)[C@@H]2CCCN2c2cc(N3CCC(CCCC(=O)N[C@H](CC(=O)O)C(=O)O)CC3)nc(C(F)(F)F)n2)cc1 : < 0.1 µM
C[N+](C)(C)CCC[C@H](NC(=O)CCCC1CCN(c2cc(N3CCC[C@H]3C(=O)NCCc3ccc(C#N)cc3)nc(C(F)(F)F)n2)CC1)C(=O)O : < 0.1 µM

In the following, a different compound is considered.
Looking up `N#Cc1ccc(CCNC(=O)[C@@H]2CCCN(c3cc(N4CCC(CCN)CC4)nc(C(F)(F)F)n3)C2)cc1` , I found its EC50 recorded as < 0.1 µM

----------
- experimental target: human TGR5 receptor (Homo sapiens, UniProt Q8TDU6)
- Sequence (Q8TDU6 whole entry): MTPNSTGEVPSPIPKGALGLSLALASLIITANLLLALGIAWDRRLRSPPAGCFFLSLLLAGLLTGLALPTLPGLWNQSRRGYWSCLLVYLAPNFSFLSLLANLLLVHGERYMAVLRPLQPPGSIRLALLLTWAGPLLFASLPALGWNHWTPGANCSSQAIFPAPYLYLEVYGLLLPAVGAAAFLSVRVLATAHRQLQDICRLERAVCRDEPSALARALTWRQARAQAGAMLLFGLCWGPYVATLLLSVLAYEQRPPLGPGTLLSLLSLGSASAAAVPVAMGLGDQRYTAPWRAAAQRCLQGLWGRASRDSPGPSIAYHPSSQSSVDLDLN
- assay text: Human TGR5 cAMP production assay (hTGR5-CHO cells, DiscoveRx cAMP XS+ kit)
- condition set: luminescent cAMP assay, read-out: Human TGR5 Lum. cAMP Activity (EC50)
measured metric: EC50

Known results for molecules:
N#Cc1ccc(CCNC(=O)[C@@H]2CCCN2c2cc(N3CCC(CCCC(=O)N[C@H](CCCNC(=N)N)C(=O)O)CC3)nc(C(F)(F)F)n2)cc1 [Compound 73] : < 100 nM
N#Cc1ccc(CCNC(=O)[C@@H]2CCCN2c2cc(N3CCC(CCCC(=O)NCP(=O)(O)O)CC3)nc(C(F)(F)F)n2)cc1 [Compound 64] : < 100 nM
O=C(CCCC1CCN(c2cc(N3CC[C@H]3C(=O)NCCc3ccc(C(F)(F)F)cc3)nc(C(F)(F)F)n2)CC1)NCS(=O)(=O)O [Compound 255] : < 100 nM

Data point: COCCC1CCN(c2cc(N3CC[C@H]3C(=O)NCCc3ccc(C#N)cc3)nc(C(F)(F)F)n2)CC1 [Compound 225] ; EC50 = < 100 nM

Quick note, EC50 for O=C(NCCc1ccc(C(F)(F)F)cc1)[C@@H]1CCCN1c1cc(-c2ccncc2)nc(C(F)(F)F)n1 [Compound 140] landed at 100 to 999 nM

Kindly note the recorded EC50 for N#Cc1ccc(CCNC(=O)[C@@H]2CCN2c2cc(N3CCC(CCCC(=O)N[C@@H](CCCNC(=N)N)C(=O)O)CC3)nc(C(F)(F)F)n2)cc1 [Compound 251] , which is < 100 nM

The measured EC50 associated with N#Cc1ccc(CCNC(=O)[C@@H]2CCN2c2cc(N3CCC(CCCC(=O)NCCCCNC(=N)N)CC3)nc(C(F)(F)F)n2)cc1 [Compound 283] reads < 100 nM

Noted for N#Cc1ccc(CCNC(=O)[C@@H]2CCCN2c2cc(N3CCC(CCCC(=O)NCCNc4ncc(C(=O)O)cn4)CC3)nc(C(F)(F)F)n2)cc1 [Compound 98] : its EC50 reads < 100 nM

EC50 recorded for this molecule, N#Cc1ccc(CCNC(=O)[C@@H]2CCCN(c3cc(N4CCC(CO)CC4)nc(C(F)(F)F)n3)C2)cc1 [Compound 308] , is < 100 nM

EC50 for N#CCCN1CCN(c2cc(N3CCC[C@H]3C(=O)NCCc3ccc(C(F)(F)F)cc3)nc(C(F)(F)F)n2)CC1 [Compound 10] is < 100 nM

The reported value for COc1cc(C(F)(F)F)ccc1CCNC(=O)[C@@H]1CCN1c1cc(N2CCC(CCCC(=O)O)CC2)nc(C(F)(F)F)n1 [Compound 240] in terms of EC50 is < 100 nM

For this molecule ( N#Cc1ccc(CCNC(=O)[C@@H]2CCCN2c2cc(-c3ccc(CN4CCOCC4)s3)nc(C(F)(F)F)n2)cc1 [Compound 168] ), measured EC50 is 1000 to 30000 nM

Source of measurements: patent US10654834B2
